Assay info: method code SF-AS, from Ploquin, J.; Sparfel, L.; LeBaut, G.; Floc'h, R.; Welin, L.; Petit, Y.; Henry, N. (1974). Pyrophthalones. III. Properties of gamma-pyrophthalones. Eur J Med Chem, 9(5)526-533.
Reported conditions: pH 7.4
A collection of molecules and their measured logD
Answer using only a numeral; do not append any unit.

Worked set:
C=CCN1C=CC(=C2C(=O)c3ccccc3C2=O)C=C1C | 2.54
CCN1C=CC(=C2C(=O)c3ccccc3C2=O)C=C1 | 2.12
CCCCN1C=CC(=C2C(=O)c3ccccc3C2=O)C=C1 | 3.05

Entry CCCN1C=CC(=C2C(=O)c3ccccc3C2=O)C=C1 has what logD? 2.64

Given CC1=CC(=C2C(=O)c3ccccc3C2=O)C=CN1CC(C)C , state its recorded logD. 2.82

Dear colleague, I am looking for the recorded logD of the following molecule: CC=CN1C=CC(=C2C(=O)c3ccccc3C2=O)C=C1 2.75

# query: logD of entry CN1C=CC(=C2C(=O)c3ccccc3C2=O)C=C1 1.6

I would be grateful if you could share the reported logD for CCCCCCCCCN1C=CC(=C2C(=O)c3ccccc3C2=O)C=C1 . 3.45

What does the record list as logD for CC1=CC(=C2C(=O)c3ccccc3C2=O)C=C(C)N1C ? 2.5

Please give the measured logD for this molecule: CC(O)CN1C=CC(=C2C(=O)c3ccccc3C2=O)C=C1 (centres undefined) 1.75

Item CC=CN1C=CC(=C2C(=O)c3ccccc3C2=O)C=C1C has what recorded logD? 2.6

# input molecule: CC1=CC(=C2C(=O)c3ccccc3C2=O)C=CN1C(C)C ; wanted: its logD 2.33

Quick one: logD for CCCN1C=CC(=C2C(=O)c3ccccc3C2=O)C=C1C ? 2.63

Any idea what its logD is? The molecule is CC(C)CN1C=CC(=C2C(=O)c3ccccc3C2=O)C=C1 2.76

Quick check: logD of O=C1C(=C2C=CN(CCc3ccccc3)C=C2)C(=O)c2ccccc21 ? 3.3

If you can, please state the reported logD value of CCN1C=CC(=C2C(=O)c3ccccc3C2=O)C=C1C . 2.34

Consider the molecule O=C1C(=C2C=CN(Cc3ccccc3)C=C2)C(=O)c2ccccc21 and give its measured logD. 2.99

Data provenance is the SangsterLogP compilation.
